target: SIRT1 (Homo sapiens); experiment: Mass spectrometry based assay to identify modulators of SIRT1 activity (deacetylation of p53-based acetylated peptide); assay type: biochemical; details: 10 nM SIRT1, 0.5 μM peptide substrate, 120 μM βNAD+, 25 minutes at 25° C.
Metric Name: % Fold Act. (percent maximum fold activation)

{"Compound": "Cc1cc(NC(=O)c2cccc3c(=O)cc(-c4cccc(C(F)(F)F)c4)[nH]c23)n(C)n1", "Target Of Assay": "SIRT1 (Homo sapiens)", "Val": "A (Fold activation>200%)"}
{"Compound": "Cn1c(-c2cccc(C(F)(F)F)c2)nc2c(NS(=O)(=O)c3ccccn3)cccc2c1=O", "Target Of Assay": "SIRT1 (Homo sapiens)", "Val": "B (Fold Activation<200%)"}
{"Compound": "O=C(Nc1cccnc1)c1cccc2c(=O)cc(-c3ccccc3C(F)F)[nH]c12", "Target Of Assay": "SIRT1 (Homo sapiens)", "Val": "A (Fold activation>200%)"}
{"Compound": "Cn1c(-c2ccccc2OC(F)(F)F)nc2c(NC(=O)c3cnccn3)cccc2c1=O", "Target Of Assay": "SIRT1 (Homo sapiens)", "Val": "A (Fold activation>200%)"}
{"Compound": "Cn1c(-c2ccccc2S(C)(=O)=O)nc2c(C(=O)Nc3ccccn3)cccc2c1=O", "Target Of Assay": "SIRT1 (Homo sapiens)", "Val": "A (Fold activation>200%)"}
{"Compound": "CN1CCCCC1C(=O)Nc1cccc2c(=O)n(C)c(-c3cccc(C(F)(F)F)c3)nc12 (centres unmarked)", "Target Of Assay": "SIRT1 (Homo sapiens)", "Val": "B (Fold Activation<200%)"}
{"Compound": "Cn1c(-c2cccc(C(F)(F)F)c2)nc2c(C(=O)Nc3ccncn3)cccc2c1=O", "Target Of Assay": "SIRT1 (Homo sapiens)", "Val": "A (Fold activation>200%)"}
{"Compound": "O=C(Nc1cccc2c(=O)cc(-c3cccc(C(F)(F)F)c3)[nH]c12)c1ncccn1", "Target Of Assay": "SIRT1 (Homo sapiens)", "Val": "A (Fold activation>200%)"}

====

target: SIRT1 (Homo sapiens, UniProt Q96EB6); test: Mass spectrometry based assay to identify modulators of SIRT1 activity (deacetylation of p53-based acetylated peptide); format: biochemical; conditions: SIRT1 activation; 10 nM SIRT1, 0.5 μM peptide substrate, 120 μM βNAD+, 25 minutes at 25° C.
Sequence (Q96EB6 whole entry): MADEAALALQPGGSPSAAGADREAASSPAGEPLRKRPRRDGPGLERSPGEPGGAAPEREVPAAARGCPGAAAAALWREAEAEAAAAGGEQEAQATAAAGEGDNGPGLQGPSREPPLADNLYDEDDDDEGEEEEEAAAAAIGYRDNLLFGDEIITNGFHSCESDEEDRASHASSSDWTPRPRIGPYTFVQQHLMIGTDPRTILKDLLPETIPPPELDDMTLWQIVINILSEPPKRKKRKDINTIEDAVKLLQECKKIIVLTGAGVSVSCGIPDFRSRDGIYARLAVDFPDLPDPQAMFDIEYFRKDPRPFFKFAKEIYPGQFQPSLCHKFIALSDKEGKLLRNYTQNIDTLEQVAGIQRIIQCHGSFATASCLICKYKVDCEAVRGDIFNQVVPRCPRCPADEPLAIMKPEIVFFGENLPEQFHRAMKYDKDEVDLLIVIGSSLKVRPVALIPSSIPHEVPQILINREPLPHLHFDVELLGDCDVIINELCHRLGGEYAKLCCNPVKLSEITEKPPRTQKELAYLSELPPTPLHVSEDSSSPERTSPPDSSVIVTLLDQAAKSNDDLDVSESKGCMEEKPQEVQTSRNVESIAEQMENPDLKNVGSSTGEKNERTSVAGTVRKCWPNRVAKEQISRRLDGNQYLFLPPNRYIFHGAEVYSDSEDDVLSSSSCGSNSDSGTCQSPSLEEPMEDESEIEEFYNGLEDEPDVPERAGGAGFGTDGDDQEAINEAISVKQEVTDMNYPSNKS
Metric Name: EC1.5 μM

{"Chem Smiles": "Cn1c(-c2ccccc2Cl)nc2c(C(=O)Nc3ccccn3)cccc2c1=O", "Val": "B (EC1.5 1-25 μM)"}
{"Chem Smiles": "Cn1cncc1-c1nc2c(C(=O)Nc3ccccn3)cccc2c(=O)n1C", "Val": "C (EC1.5>25 μM)"}
{"Chem Smiles": "Cn1c(-c2cccc(C(F)(F)F)c2)nc2c(C(=O)Nc3cncc(CN4CCOCC4)c3)cccc2c1=O", "Val": "B (EC1.5 1-25 μM)"}
{"Chem Smiles": "Cn1c(-c2cccc(OC(F)F)c2)nc2c(C(=O)Nc3ccccn3)cccc2c1=O", "Val": "A (EC1.5<1.0 μM)"}
{"Chem Smiles": "Cn1c(-c2cccc(C(F)(F)F)c2)nc2c(NC(=O)c3cocn3)cccc2c1=O", "Val": "C (EC1.5>25 μM)"}
{"Chem Smiles": "O=C(Nc1cccc2c(=O)cc(-c3cccc(C(F)(F)F)c3)[nH]c12)c1ccncn1", "Val": "A (EC1.5<1.0 μM)"}
{"Chem Smiles": "Cn1c(-c2cccc(C(F)(F)F)c2)nc2c(C(=O)Nc3cccc(CN4CC[C@@H](F)C4)n3)cccc2c1=O", "Val": "A (EC1.5<1.0 μM)"}
{"Chem Smiles": "Cn1c(-c2cccc(C(F)(F)F)c2)nc2c(NC(=O)c3cccc(N4CCOCC4)c3)cccc2c1=O", "Val": "A (EC1.5<1.0 μM)"}
{"Chem Smiles": "CC(C)Cn1c(-c2cccc(C(F)(F)F)c2)nc2c(C(=O)Nc3ccccn3)cccc2c1=O", "Val": "B (EC1.5 1-25 μM)"}
{"Chem Smiles": "Cn1ccc(-c2nc3c(C(=O)Nc4ccccn4)cccc3c(=O)n2C)n1", "Val": "B (EC1.5 1-25 μM)"}
{"Chem Smiles": "Cn1c(-c2ccccc2C(F)(F)F)nc2c(C(=O)Nc3ccccn3)cccc2c1=O", "Val": "B (EC1.5 1-25 μM)"}
{"Chem Smiles": "Cn1c(-c2ncccn2)nc2c(NC(=O)c3cnccn3)cccc2c1=O", "Val": "C (EC1.5>25 μM)"}
{"Chem Smiles": "Cn1c(-c2cccc(C(F)(F)F)c2)nc2c(C(=O)Nc3nc(CN4CCNCC4)cs3)cccc2c1=O", "Val": "A (EC1.5<1.0 μM)"}
{"Chem Smiles": "Cc1cc(C(=O)Nc2cccc3c(=O)cc(-c4cccc(C(F)(F)F)c4)[nH]c23)n(C)n1", "Val": "A (EC1.5<1.0 μM)"}
{"Chem Smiles": "O=C(Nc1cccnc1)c1cccc2c(=O)cc(-c3ccccc3C(F)(F)F)[nH]c12", "Val": "A (EC1.5<1.0 μM)"}
{"Chem Smiles": "COc1cc(OC)nc(C(=O)Nc2cccc3c(=O)cc(-c4cccc(C(F)(F)F)c4)[nH]c23)n1", "Val": "A (EC1.5<1.0 μM)"}
